All values here come from the supplement of paper PMC5844555.

system: PHOX2B; test: 3' UTR reporter interaction score (median-centred robust z-score of log2 firefly/Renilla activity); higher = less repression of the 3' UTR reporter; conditions: HEK293T; 48 h
3' UTR reporter interaction score reference
A bare number is all that is needed in reply.

record_sequence=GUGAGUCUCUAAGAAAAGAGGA numeric_value=-1.54
record_sequence=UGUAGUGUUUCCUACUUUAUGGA numeric_value=0.885
record_sequence=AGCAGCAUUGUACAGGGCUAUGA numeric_value=1.07
record_sequence=CUGAAGUGAUGUGUAACUGAUCAG numeric_value=-1.07
record_sequence=CAAAGUGCUCAUAGUGCAGGUAG numeric_value=1.67

Turning now to a further sequence:
// sample AUCCCUUGCAGGGGCUGUUGGGU , its 3' UTR reporter interaction score was -1.62

====

system: PHF6; assay: 3' UTR reporter interaction score (median-centred robust z-score of log2 firefly/Renilla activity); higher = less repression of the 3' UTR reporter; conditions: HEK293T; 48 h
So basically: 3' UTR reporter interaction score at 0.4 or higher? That is criterion met. Lower than 0.4? That is criterion not met.

Reported 3' UTR reporter interaction score at or above 0.4? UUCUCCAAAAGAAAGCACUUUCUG criterion met

Check if 3' UTR reporter interaction score >= 0.4 (inclusive). Item: UCCGAGCCUGGGUCUCCCUCU criterion not met

Hi team, for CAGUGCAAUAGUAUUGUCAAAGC , is the recorded 3' UTR reporter interaction score at or above 0.4? criterion met

====

test system: HRAS; assay: 3' UTR reporter interaction score (median-centred robust z-score of log2 firefly/Renilla activity); higher = less repression of the 3' UTR reporter; settings: HEK293T; 48 h
Assay metric: 3' UTR reporter interaction score
Just the number, please, no unit after it.

record_sequence=CAAAGUGCUUACAGUGCAGGUAGU numeric_value=0.135
record_sequence=GGCGGAGGGAAGUAGGUCCGUUGGU numeric_value=-0.537
record_sequence=UGAGAACUGAAUUCCAUAGGCU numeric_value=-0.193
record_sequence=GCGACCCACUCUUGGUUUCCA numeric_value=-0.85
record_sequence=CAAAAACCACAGUUUCUUUUGC numeric_value=-1.1
record_sequence=GCGUGCGCCGGCCGGCCGCC numeric_value=-0.392

3' UTR reporter interaction score reading for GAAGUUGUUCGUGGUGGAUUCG : 0.113

Record summary for UUGCAUAUGUAGGAUGUCCCAU : reported 3' UTR reporter interaction score = 0.995

For ACUGCAGUGAAGGCACUUGU the sequence record lists 3' UTR reporter interaction score as 0.389

Data point: CUGGAUGGCUCCUCCAUGUCU ; 3' UTR reporter interaction score = -0.334

The sequence listed as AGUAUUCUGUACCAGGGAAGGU has a reported 3' UTR reporter interaction score of -0.0345

====

test system: NOTCH1; assay: 3' UTR reporter interaction score (median-centred robust z-score of log2 firefly/Renilla activity); higher = less repression of the 3' UTR reporter; settings: HEK293T; 48 h
// 3' UTR reporter interaction score lookup, one value per entry
Reply: number alone, nothing else.

record_sequence=UCACAGUGAACCGGUCUCUUUC assay_system=NOTCH1 numeric_value=-0.749
record_sequence=UAUUGCUUAAGAAUACGCGUAG assay_system=NOTCH1 numeric_value=-0.139
record_sequence=UGAAACAUACACGGGAAACCUCUU assay_system=NOTCH1 numeric_value=2.03
record_sequence=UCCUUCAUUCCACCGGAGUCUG assay_system=NOTCH1 numeric_value=-0.263
record_sequence=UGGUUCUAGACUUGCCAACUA assay_system=NOTCH1 numeric_value=-0.954
record_sequence=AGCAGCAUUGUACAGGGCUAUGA assay_system=NOTCH1 numeric_value=-0.182

Lab note: measured 3' UTR reporter interaction score of GUCCCUCUCCAAAUGUGUCUUG was -0.392

====

Collected 3' UTR reporter interaction score values appear next to each entry.
tested on: EZH2; test: 3' UTR reporter interaction score (median-centred robust z-score of log2 firefly/Renilla activity); higher = less repression of the 3' UTR reporter; conditions: HEK293T; 48 h
// no unit, no text: just the number

// below: answered sequences
record_sequence=GGUAGAUUCUCCUUCUAUGAG numeric_value=-0.351
record_sequence=UUCACAGGGAGGUGUCAUUUAU numeric_value=1.32

Reported 3' UTR reporter interaction score ( AAAGUGCAUCCUUUUAGAGUGUUAC ) = -0.596

Per the records, this sequence ( UGGACGGAGAACUGAUAAGGGU ) has 3' UTR reporter interaction score equal to -0.0404

Notebook: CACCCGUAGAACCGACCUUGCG , 3' UTR reporter interaction score read as -0.866

====

system: ZEB2; test: 3' UTR reporter interaction score (median-centred robust z-score of log2 firefly/Renilla activity); higher = less repression of the 3' UTR reporter; settings: HEK293T; 48 h
Assay metric: 3' UTR reporter interaction score
Lab note: write the figure by itself, no unit.

Some entries whose results are on file:
record_sequence=AGCUGGUGUUGUGAAUC assay_system=ZEB2 numeric_value=0.43
record_sequence=UCUGGCUCCGUGUCUUCACUCC assay_system=ZEB2 numeric_value=1.83

Value of measured 3' UTR reporter interaction score for the entry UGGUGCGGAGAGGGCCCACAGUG : 0.607

Record summary for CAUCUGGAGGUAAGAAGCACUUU : reported 3' UTR reporter interaction score = 1.48

====

system: ZEB2; experiment: 3' UTR reporter interaction score (median-centred robust z-score of log2 firefly/Renilla activity); higher = less repression of the 3' UTR reporter; conditions: HEK293T; 48 h
Assay metric: 3' UTR reporter interaction score

record_sequence=CUCUAGAGGGAAGCACUUUCUCU assay_system=ZEB2 result=-0.685
record_sequence=CUCUUGAGGGAAGCACUUUCUGUU assay_system=ZEB2 result=-0.69
record_sequence=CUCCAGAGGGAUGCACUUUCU assay_system=ZEB2 result=-0.701

We next turn to a different sequence, shown below.
For record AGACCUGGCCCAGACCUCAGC the listed 3' UTR reporter interaction score is -0.702

====

Form field: 3' UTR reporter interaction score (one value per entry).
system: BRCA2; assay: 3' UTR reporter interaction score (median-centred robust z-score of log2 firefly/Renilla activity); higher = less repression of the 3' UTR reporter; details: HEK293T; 48 h
Give the figure by itself; no unit, no explanation.

Illustrative cases are given below, each with its answer.
record_sequence=ACCAUCGACCGUUGAUUGUACC assay_system=BRCA2 numeric_value=0.723
record_sequence=AUCGUGCAUCCCUUUAGAGUGUU assay_system=BRCA2 numeric_value=0.348

Let us move to another entry and its 3' UTR reporter interaction score.
# 3' UTR reporter interaction score (sequence: UGAGCUAAAUGUGUGCUGGGA ) is -0.453

====

tested on: ZEB2; assay: 3' UTR reporter interaction score (median-centred robust z-score of log2 firefly/Renilla activity); higher = less repression of the 3' UTR reporter; settings: HEK293T; 48 h
We begin with a simple list: items and their reported 3' UTR reporter interaction score.
Lab note: jot the number down without any unit.

Example cases with answers are listed next.
record_sequence=UGGUCUAGGAUUGUUGGAGGAG assay_metric="3' UTR reporter interaction score" numeric_value=-1.89
record_sequence=AAAGUGCAUCCUUUUAGAGGUUU assay_metric="3' UTR reporter interaction score" numeric_value=0.526
record_sequence=UAUGGCUUUUCAUUCCUAUGUG assay_metric="3' UTR reporter interaction score" numeric_value=0.267
record_sequence=UCCAGUACCACGUGUCAGGGCCA assay_metric="3' UTR reporter interaction score" numeric_value=0.742
record_sequence=UCUACAAAGGGAAGCCCUUUCUG assay_metric="3' UTR reporter interaction score" numeric_value=-0.71

Continue with the sequence presented below.
Item: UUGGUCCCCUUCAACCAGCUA | 3' UTR reporter interaction score: -0.0455

====

Listed sequences paired with reported 3' UTR reporter interaction score
test system: TP53; experiment: 3' UTR reporter interaction score (median-centred robust z-score of log2 firefly/Renilla activity); higher = less repression of the 3' UTR reporter; conditions: HEK293T; 48 h
Form rule: numeric answer, no unit written next to it.

The examples below pair each entry with its known result.
record_sequence=CGAAUGUUGCUCGGUGAACCCCU numeric_value=-0.241
record_sequence=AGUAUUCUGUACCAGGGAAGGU numeric_value=0.107
record_sequence=GCGACCCAUACUUGGUUUCAG numeric_value=-0.0561
record_sequence=AAAGUGCUUCCCUUUGGACUGU numeric_value=0.0148
record_sequence=GUUGGAGGAUGAAAGUACGGAGUGAU numeric_value=-1.24

Consider the record given below.
// 3' UTR reporter interaction score value for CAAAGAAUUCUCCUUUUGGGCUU : -0.294
